Assay: NCI Yeast Anticancer Drug Screen. Data for the mec2-1 strain (AID 157)
Conditions: S. cerevisiae mec2-1 strain, at 50.0 µM, active compounds read high
This is part of a sample that, as a whole, favours compounds with a hit. Of some 79,000 tested, about 15% had one in any assay.
measure.name: growth inhibition (%)

[[record]]
compound = "CCCCCCCCCCCCCCCC(=O)O[C@@H]1[C@@H](C)[C@@]2(O)[C@@H](C=C(CO)C[C@]3(O)C(=O)C(C)=C[C@@H]23)[C@H]2[C@]1(OC(C)=O)[C@]2(C)CO"
assay_result = 2.75

[[record]]
compound = "COc1ccc(NC(C)=O)cc1Br"
assay_result = -40.5

[[record]]
compound = "NCC(=O)c1cc2ccccc2[n+]([O-])c1"
assay_result = -4.45

[[record]]
compound = "C/[N+]([O-])=C/c1ncc([N+](=O)[O-])n1CCO"
assay_result = 5.9

[[record]]
compound = "CC(=O)Nc1ccc(S(=O)(=O)NCCC(=O)O)cc1"
assay_result = -16.6

[[record]]
compound = "Nc1ccccc1CO"
assay_result = 2.4

[[record]]
compound = "C1CCC(c2nn[nH]n2)CC1"
assay_result = -7.05

[[record]]
compound = "CC(C)(CNC(=O)C12CC3CC(CC(C3)C1)C2)NC(=O)C12CC3CC(CC(C3)C1)C2"
assay_result = 12.5

[[record]]
compound = "Cc1cc2c(C(C)C)c(O)c(O)c(C=Nc3ccccc3)c2c(O)c1-c1c(C)cc2c(C(C)C)c(O)c(O)c(C=Nc3ccccc3)c2c1O"
assay_result = 34

[[record]]
compound = "CC1(O)/C=C\\C=C(\\CO)C2CC(C)(C)C2(O)CC1 (stereo unspecified)"
assay_result = -40

[[record]]
compound = "O=C(NN=C1c2ccccc2-c2ccccc21)C(F)(F)F"
assay_result = 2.05


* * *

Assay: NCI Yeast Anticancer Drug Screen. Data for the mlh1 rad18 strain (AID 175)
Details: S. cerevisiae mlh1 rad18 strain growth inhibition; at 50.0 µM; active compounds read high
The panel holds about 79,000 compounds, 15% with a hit somewhere; the sample as a whole holds those more often.
measure.name: growth inhibition (%)

[[record]]
compound = "CC(=O)Nc1ccccc1-c1nc2cccnc2[nH]c1=O"
readout_unit = "%"
assay_result = -11.9

[[record]]
compound = "Clc1ccc(C2N(Cc3ccccc3)CCC3CCCCN32)cc1Cl (stereo unspecified)"
readout_unit = "%"
assay_result = -1.4

[[record]]
compound = "CCC(C)NC(=O)/C=C/c1ccccc1 (stereo unspecified)"
readout_unit = "%"
assay_result = 6.65

[[record]]
compound = "N#Cc1ccc2c(c1)Sc1ccccc1N2"
readout_unit = "%"
assay_result = 21.7

[[record]]
compound = "COc1cc2ccccc2cc1CO"
readout_unit = "%"
assay_result = -0.45

[[record]]
compound = "O=S(=O)(NC1CCC(CC2CCCCC2)CC1)c1ccccc1 (stereo unspecified)"
readout_unit = "%"
assay_result = 82.5

[[record]]
compound = "COc1ccc(/C=N/N=C/c2ccc(OC)cc2)cc1"
readout_unit = "%"
assay_result = 17.8

[[record]]
compound = "CC1(C)C2CCC3CC(CCC#N)CCC3C21C#N (stereo unspecified)"
readout_unit = "%"
assay_result = -23.1

[[record]]
compound = "O=C(Nc1cc([N+](=O)[O-])ccc1F)Oc1ccc(OCc2ccccc2)cc1"
readout_unit = "%"
assay_result = 18.2

[[record]]
compound = "CC(C)(C)/C=N/Nc1ccc([N+](=O)[O-])cc1[N+](=O)[O-]"
readout_unit = "%"
assay_result = -13.3

[[record]]
compound = "[Cl][Ce]([Cl])[Cl]"
readout_unit = "%"
assay_result = 15.6

[[record]]
compound = "CCCCCCNC(=O)C1=C(C)NC(C)=C(C(=O)NCCCCCC)C1"
readout_unit = "%"
assay_result = -42.2

[[record]]
compound = "CCN(CC)CCNc1ccc2ncn3c4c(OC)cccc4c(=O)c1c23"
readout_unit = "%"
assay_result = 67.2

[[record]]
compound = "COn1nnc2c([N+](=O)[O-])cccc21"
readout_unit = "%"
assay_result = 5

[[record]]
compound = "CC1(C)CC(=O)C(C(c2ccc3c(c2)CCC3)C2C(=O)CC(C)(C)CC2=O)C(=O)C1"
readout_unit = "%"
assay_result = -21.4

[[record]]
compound = "CC(C)c1ccc(N=Nc2ccc(N(C)C)cc2)cc1"
readout_unit = "%"
assay_result = -5.65

[[record]]
compound = "C[C@@H]1OC2(O)[C@H]3CCCN3S(=O)(=O)CCN2C1=O (stereo partly specified)"
readout_unit = "%"
assay_result = -1.2

[[record]]
compound = "COc1ccc(C(C)=O)c(O)c1"
readout_unit = "%"
assay_result = 5.2

[[record]]
compound = "CC(=O)Nc1nc(Cl)c2cc[nH]c2n1"
readout_unit = "%"
assay_result = -11.6

[[record]]
compound = "COC(=O)C(=O)C(C(=O)C(=O)Nc1cccc([N+](=O)[O-])c1)c1nc2ccc(Cl)cc2[nH]c1=O (stereo unspecified)"
readout_unit = "%"
assay_result = 0.2

[[record]]
compound = "c1ccc(-c2cc(CNc3nc4ccccc4s3)on2)cc1"
readout_unit = "%"
assay_result = 9.75

[[record]]
compound = "CC(C)(C)OC(=O)CC1(C)NC(C(=O)O)C(C)(C)S1 (stereo unspecified)"
readout_unit = "%"
assay_result = 10.8

[[record]]
compound = "CCC(C)(C1CCC(=O)CC1)C1CCC(=O)CC1"
readout_unit = "%"
assay_result = 7.85

[[record]]
compound = "C[P+](C)(C)c1ccccc1"
readout_unit = "%"
assay_result = -3.7

[[record]]
compound = "O=S1(=O)CS(=O)(=O)OCCCCO1"
readout_unit = "%"
assay_result = 7.85

[[record]]
compound = "COC(CN1C(=O)CSC1=S)OC"
readout_unit = "%"
assay_result = -6.8


Data credit: PubChem BioAssay (NCI)
